- Measurement Protocol: recombinant barcode read abundance after kanamycin selection (control-corrected) (log10(CPM+1)); higher = more efficient recombination; sequences stand for … in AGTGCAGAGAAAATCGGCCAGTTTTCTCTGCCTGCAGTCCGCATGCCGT…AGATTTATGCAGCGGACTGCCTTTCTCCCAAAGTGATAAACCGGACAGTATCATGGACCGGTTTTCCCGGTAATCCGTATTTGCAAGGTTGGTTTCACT; site = the 11-nt target
Measured Property: recombinant barcode read abundance (log10)

AGGAACCCTTGGGTTCTAACCTGTTGCTT (site AGGAACCCTAA)	0.911
GTAAGAACTTGGGTTCTAACCTGTTGCTT (site GTAAGAACTAA)	0.629
CAATTACCTTGGGTTCTAACCTGTTGCTT (site GCGCCCTCTCG)	0.0793
GACGGATCTTGGGTTCTAACCTGTTGCGT (site GACGGATCTAG)	0.569
GTTCCTCCTTGGGTTCTAACCTGTTGCCT (site GTTCCTGCTAG)	0.0108
CGGGACACTTGGGTTCTAACCTGTTGCGG (site CGGAACACTCC)	2.07
CGGGGTTCTTGGGTTCTAACCTGTTGCCT (site CCGGGTTCTAG)	0.167
TACAAGTCTTGGGTTCTAACCTGTTGCGG (site TACAAGGCTCC)	0.0774
CCGTCTACTTGGGTTCTAACCTGTTGCTT (site CCGTCTACTGA)	0.0444
TTGACGGCTTGGGTTCTAACCTGTTGCCT (site CCATTCCCTTA)	0.041
CAGTGGCCTTGGGTTCTAACCTGTTGCCT (site CAGGGGCCTAG)	0.234
GACATTCCTTGGGTTCTAACCTGTTGCCT (site GACATTCCTAG)	0.131
AAGCACCCTTGGGTTCTAACCTGTTGCAG (site TAGCACTCTCT)	0.311
GACTTGGCTTGGGTTCTAACCTGTTGCCT (site GACTTGCCTAG)	0.146
GTGGTAGCTTGGGTTCTAACCTGTTGCCT (site GTGGTATCTAG)	0.0998
GGTCCATCTTGGGTTCTAACCTGTTGCCT (site GTTCCATCTAG)	0.165
GTCCTATCTTGGGTTCTAACCTGTTGCTA (site GTCCTATCTTA)	0.656
TACGAATCTTGGGTTCTAACCTGTTGCCT (site TACGAATCTAG)	0.881
ATGCGAGCTTGGGTTCTAACCTGTTGCAG (site ATGCGAGCTCG)	0.549
GAACCTACTTGGGTTCTAACCTGTTGCGG (site GAACCTACTTC)	0.107
GTATGAACTTGGGTTCTAACCTGTTGCCT (site GTATGAGCTAG)	0.384

====

Parameter: recombinant barcode read abundance (log10). Scope: all listed entries.
- Measurement Protocol: recombinant barcode read abundance after kanamycin selection (control-corrected) (log10(CPM+1)); higher = more efficient recombination; sequences stand for … in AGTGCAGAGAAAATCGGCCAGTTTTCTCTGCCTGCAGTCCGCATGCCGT…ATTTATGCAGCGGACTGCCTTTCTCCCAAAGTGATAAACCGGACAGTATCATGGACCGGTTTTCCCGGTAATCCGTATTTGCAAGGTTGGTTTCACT; site = the 11-nt target
Measured Property: recombinant barcode read abundance (log10)

GAGCCCACTTGGGTTCTAACCTGTTGCCTGA [GAGCCCACTAG_LTGcore_CT_RTGcore_TC] (site GAGCCCACTAG) (LTG core: CT, RTG core: TC)	0.207
ACGGGACGCTGGGTTCTAACCTGTTGCAGAG [ACGGGACCTCT_LTGcore_GC_RTGcore_CT] (site ACGGGACCTCT) (LTG core: GC, RTG core: CT)	0.257
AAACATGCGTGGGTTCTAACCTGTTGCCTCG [AAACATGCTAG_LTGcore_CG_RTGcore_CG] (site AAACATGCTAG) (LTG core: CG, RTG core: CG)	0.135
